Please go through the items and note down their Activity.
experiment: Induction of tubulin polymerization at 1 uM by DAPI fluorescence method relative to control
Express the result in % but write the number alone.

Input line: Requested field: Activity. Item: CCCCC(=O)O[C@H]1C[C@H]2OC[C@@]2(OC(C)=O)[C@H]2[C@H](OC(=O)c3ccccc3)[C@]3(O)C[C@H](OC(=O)[C@H](O)[C@@H](NC(=O)c4ccccc4)c4ccccc4)C(C)=C([C@@H](OC(=O)CC)C(=O)[C@]12C)C3(C)C
Output line: 51

Input line: Dear colleague, I am looking for the recorded Activity of the following compound: CCC(=O)O[C@H]1C(=O)[C@]2(C)[C@@H](OC(=O)C=C(C)C)C[C@H]3OC[C@@]3(OC(C)=O)[C@H]2[C@H](OC(=O)c2ccccc2)[C@]2(O)C[C@H](OC(=O)[C@H](O)[C@@H](NC(=O)c3ccccc3)c3ccccc3)C(C)=C1C2(C)C
Output line: 51

Input line: Please look up its Activity: COc1cccc(C(=O)O[C@H]2C[C@H]3OC[C@@]3(OC(C)=O)[C@H]3[C@H](OC(=O)c4ccccc4)[C@]4(O)C[C@H](OC(=O)[C@H](O)[C@@H](NC(=O)c5ccccc5)c5ccccc5)C(C)=C([C@@H](OC(=O)c5ccccc5)C(=O)[C@]23C)C4(C)C)c1
Output line: 52

Input line: Value lookup for Activity; key = CC(=O)O[C@@]12CO[C@@H]1C[C@H](OC(=O)C1CC1)[C@@]1(C)C(=O)[C@H](OC(=O)c3ccccc3)C3=C(C)[C@@H](OC(=O)[C@H](O)[C@@H](NC(=O)c4ccccc4)c4ccccc4)C[C@@](O)([C@@H](OC(=O)c4ccccc4)[C@H]21)C3(C)C
Output line: 61

Input line: Requested read-out: Activity. Entry: CCC(=O)O[C@H]1C(=O)[C@@]2(C)[C@H]([C@H](OC(=O)c3ccccc3)[C@]3(O)C[C@H](OC(=O)[C@H](O)[C@@H](NC(=O)c4ccccc4)c4ccccc4)C(C)=C1C3(C)C)[C@]1(OC(C)=O)CO[C@@H]1C[C@@H]2O
Output line: 54

Input line: Requested read-out: Activity. Entry: CCC(=O)O[C@H]1C(=O)[C@]2(C)[C@@H](OC(=O)CCl)C[C@H]3OC[C@@]3(OC(C)=O)[C@H]2[C@H](OC(=O)c2ccccc2)[C@]2(O)C[C@H](OC(=O)[C@H](O)[C@@H](NC(=O)c3ccccc3)c3ccccc3)C(C)=C1C2(C)C
Output line: 72

Input line: For the compound shown here, CCC(=O)O[C@H]1C(=O)[C@]2(C)[C@@H](OC(=O)c3ccccc3)C[C@H]3OC[C@@]3(OC(C)=O)[C@H]2[C@H](OC(=O)c2ccccc2)[C@]2(O)C[C@H](OC(=O)[C@H](O)[C@@H](NC(=O)c3ccccc3)c3ccccc3)C(C)=C1C2(C)C , give the reported Activity.
Output line: 33

Input line: So what does the record say about Activity for CC(=O)O[C@@]12CO[C@@H]1C[C@H](O)[C@@]1(C)C(=O)[C@H](OC(=O)c3ccccc3)C3=C(C)[C@@H](OC(=O)[C@H](O)[C@@H](NC(=O)c4ccccc4)c4ccccc4)C[C@@](O)([C@@H](OC(=O)c4ccccc4)[C@H]21)C3(C)C ?
Output line: 78

Input line: Please look up its Activity: CCC(=O)O[C@H]1C[C@H]2OC[C@@]2(OC(C)=O)[C@H]2[C@H](OC(=O)c3ccccc3)[C@]3(O)C[C@H](OC(=O)[C@H](O)[C@@H](NC(=O)c4ccccc4)c4ccccc4)C(C)=C([C@@H](OC(=O)OCc4ccccc4)C(=O)[C@]12C)C3(C)C
Output line: 3

Input line: Value lookup for Activity; key = C/C=C/C(=O)O[C@H]1C(=O)[C@]2(C)[C@@H](OC(=O)C3CC3)C[C@H]3OC[C@@]3(OC(C)=O)[C@H]2[C@H](OC(=O)c2ccccc2)[C@]2(O)C[C@H](OC(=O)[C@H](O)[C@@H](NC(=O)c3ccccc3)c3ccccc3)C(C)=C1C2(C)C
Output line: 41

Input line: Give the measured Activity of C/C=C/C(=O)O[C@H]1C(=O)[C@]2(C)[C@@H](OC(=O)CCl)C[C@H]3OC[C@@]3(OC(C)=O)[C@H]2[C@H](OC(=O)c2ccccc2)[C@]2(O)C[C@H](OC(=O)[C@H](O)[C@@H](NC(=O)c3ccccc3)c3ccccc3)C(C)=C1C2(C)C .
Output line: 66

Input line: Please report the recorded Activity for CCC(=O)O[C@H]1C(=O)[C@]2(C)[C@@H](OC(=O)CC)C[C@H]3OC[C@@]3(OC(C)=O)[C@H]2[C@H](OC(=O)c2ccccc2)[C@]2(O)C[C@H](OC(=O)[C@H](O)[C@@H](NC(=O)c3ccccc3)c3ccccc3)C(C)=C1C2(C)C .
Output line: 37

Input line: Please report the recorded Activity for CC(=O)O[C@@]12CO[C@@H]1C[C@H](OC(=O)CCl)[C@@]1(C)C(=O)[C@H](OC(=O)c3ccccc3)C3=C(C)[C@@H](OC(=O)[C@H](O)[C@@H](NC(=O)c4ccccc4)c4ccccc4)C[C@@](O)([C@@H](OC(=O)c4ccccc4)[C@H]21)C3(C)C .
Output line: 56

Input line: Can you share its Activity? I mean this compound: C/C=C/C(=O)O[C@H]1C(=O)[C@@]2(C)[C@H]([C@H](OC(=O)c3ccccc3)[C@]3(O)C[C@H](OC(=O)[C@H](O)[C@@H](NC(=O)c4ccccc4)c4ccccc4)C(C)=C1C3(C)C)[C@]1(OC(C)=O)CO[C@@H]1C[C@@H]2O
Output line: 80

Input line: Look up Activity: CC(=O)O[C@@]12CO[C@@H]1C[C@H](OC(=O)c1ccccc1)[C@@]1(C)C(=O)[C@H](OC(=O)OCc3ccccc3)C3=C(C)[C@@H](OC(=O)[C@H](O)[C@@H](NC(=O)c4ccccc4)c4ccccc4)C[C@@](O)([C@@H](OC(=O)c4ccccc4)[C@H]21)C3(C)C
Output line: 32

Input line: Would you mind telling me what Activity value was observed for CC(=O)O[C@@]12CO[C@@H]1C[C@H](OC(=O)C=C(C)C)[C@@]1(C)C(=O)[C@H](OC(=O)OCc3ccccc3)C3=C(C)[C@@H](OC(=O)[C@H](O)[C@@H](NC(=O)c4ccccc4)c4ccccc4)C[C@@](O)([C@@H](OC(=O)c4ccccc4)[C@H]21)C3(C)C ?
Output line: 39

These measurements were taken from ChEMBL document CHEMBL1156410.
